- SYSTEM: BRG-1 (Homo sapiens, UniProt P51532)
- Sequence (P51532 whole entry): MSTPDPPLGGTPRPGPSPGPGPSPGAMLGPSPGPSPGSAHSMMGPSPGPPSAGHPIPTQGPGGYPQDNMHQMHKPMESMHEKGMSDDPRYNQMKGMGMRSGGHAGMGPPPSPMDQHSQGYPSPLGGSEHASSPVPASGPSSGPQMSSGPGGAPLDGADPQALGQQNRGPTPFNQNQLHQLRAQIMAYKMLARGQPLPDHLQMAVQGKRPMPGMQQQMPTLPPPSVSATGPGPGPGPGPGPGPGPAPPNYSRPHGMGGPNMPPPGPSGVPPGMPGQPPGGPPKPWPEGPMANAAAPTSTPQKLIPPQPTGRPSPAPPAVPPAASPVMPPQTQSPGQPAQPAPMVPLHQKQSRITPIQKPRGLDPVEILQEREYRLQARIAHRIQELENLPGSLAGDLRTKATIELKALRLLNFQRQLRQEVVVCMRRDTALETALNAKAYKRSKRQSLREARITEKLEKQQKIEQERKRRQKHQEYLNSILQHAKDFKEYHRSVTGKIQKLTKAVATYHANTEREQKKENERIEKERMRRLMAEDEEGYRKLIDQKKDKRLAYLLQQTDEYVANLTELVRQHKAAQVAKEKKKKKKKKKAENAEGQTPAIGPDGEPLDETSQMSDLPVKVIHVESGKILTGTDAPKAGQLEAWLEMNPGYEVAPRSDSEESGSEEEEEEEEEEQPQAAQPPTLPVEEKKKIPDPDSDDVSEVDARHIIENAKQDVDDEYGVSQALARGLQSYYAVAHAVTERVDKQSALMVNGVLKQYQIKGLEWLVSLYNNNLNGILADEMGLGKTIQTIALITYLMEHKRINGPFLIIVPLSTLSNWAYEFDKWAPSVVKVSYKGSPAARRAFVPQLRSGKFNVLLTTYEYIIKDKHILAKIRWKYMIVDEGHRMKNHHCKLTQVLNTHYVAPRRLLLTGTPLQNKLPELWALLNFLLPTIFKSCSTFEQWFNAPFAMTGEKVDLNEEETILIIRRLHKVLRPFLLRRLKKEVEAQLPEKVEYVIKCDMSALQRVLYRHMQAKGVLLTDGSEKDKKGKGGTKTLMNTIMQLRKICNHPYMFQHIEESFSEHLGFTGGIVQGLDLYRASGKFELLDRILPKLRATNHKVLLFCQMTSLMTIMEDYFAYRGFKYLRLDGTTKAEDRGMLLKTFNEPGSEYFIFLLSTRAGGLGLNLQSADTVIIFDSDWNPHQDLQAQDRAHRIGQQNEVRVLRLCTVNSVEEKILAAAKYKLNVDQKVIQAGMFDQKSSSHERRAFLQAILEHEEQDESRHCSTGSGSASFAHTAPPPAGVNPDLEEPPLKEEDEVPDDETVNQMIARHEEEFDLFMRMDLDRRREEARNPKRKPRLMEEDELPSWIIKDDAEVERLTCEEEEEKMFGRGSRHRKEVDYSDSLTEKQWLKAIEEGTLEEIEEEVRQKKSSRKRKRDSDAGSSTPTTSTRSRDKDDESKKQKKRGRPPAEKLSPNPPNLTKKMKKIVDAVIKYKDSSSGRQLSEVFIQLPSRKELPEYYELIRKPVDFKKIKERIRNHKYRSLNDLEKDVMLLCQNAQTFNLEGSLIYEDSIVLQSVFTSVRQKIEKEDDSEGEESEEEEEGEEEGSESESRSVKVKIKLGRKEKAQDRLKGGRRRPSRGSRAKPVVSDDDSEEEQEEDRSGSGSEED
pIC50: −log10 of the molar value.
Outcome: criterion met for pIC50 of at least 7; criterion not met for anything lower.

In [3]: df
Out[3]:
                            compound_string        label_value
0  O=C(NCc1cc2cc(-c3cccc([C@@H]4CC4(F)F)n3)ccc2cn1)c1cc(F)c2c(c1)S(=O)(=O)[C@@H](F)CCO2  criterion not met
1  CO[C@H]1CN(c2cccc(-c3ccc4cnc(CNC(=O)c5cc(F)c6c(c5)S(=O)(=O)[C@@H](F)COC6)cc4n3)n2)C[C@@H]1F      criterion met
2  O=C(NCc1cc2nc(N3CCOc4ccc(N5CC(F)C5)nc43)ccc2cn1)c1cc(F)c2c(c1)S(=O)(=O)[C@@H](F)COC2      criterion met
3  CCO[C@@H]1CCN(c2cccc(-c3ccc4cnc(CNC(=O)c5cc(F)c6c(c5)S(=O)(=O)[C@@H](F)CCO6)cc4n3)n2)C1      criterion met
4  C[C@@H]1CN(c2cccc(-c3ccc4cnc(CNC(=O)c5cc(OC(F)F)c6c(c5)S(=O)(=O)[C@@H](F)CCO6)cc4n3)n2)C[C@H](C)O1  criterion not met
5  O=C(NCc1cc2nc(N3CCOc4ccc(N5CC[C@H](F)C5)nc43)ccc2cn1)c1cc(F)c2c(c1)S(=O)(=O)[C@@H](F)CCO2      criterion met
6  Cc1cc2c(-c3ccc4cnc(CNC(=O)c5cc(F)c6c(c5)S(=O)(=O)[C@@H](F)CCO6)cc4n3)ccc(F)c2n1C      criterion met
7  Cc1cc(C(=O)NCc2cc3nc(-c4cccc(N5C[C@@H](C)O[C@@H](C)C5)n4)ccc3cn2)cc2c1OCC[C@H](F)S2(=O)=O      criterion met
8  Cc1cc(C(=O)NCc2cc3nc(-c4ccc(OC(F)F)c(C5CC5)n4)ccc3cn2)cc2c1OCC[C@H](F)S2(=O)=O  criterion not met
9  C[C@@H]1[C@@H](F)CN1c1cnc2c(c1)OCCN2c1ccc2cnc(CNC(=O)c3cc(F)c4c(c3)S(=O)(=O)[C@@H](F)CCO4)cc2n1      criterion met

----------
Recorded measurements of Ratio (MDA-MMTV IC50 (μM) divided by A549-MMTV IC50 (μM)), one per entry
- Test system: BRM-dependent transcription (BRG1 mutant lung cancer cell line A549)
- ASSAY_PROTOCOL: BRM-dependent transcription, MMTV luciferase reporter in BRG1 mutant A549 cells
- Format: cell-based
- ASSAY_SETUP: MMTV luciferase reporter cell lines, selectivity BRG1/BRM, Table 11
MEASUREMENT_NAME: Ratio (MDA-MMTV IC50 (μM) divided by A549-MMTV IC50 (μM))

COMPOUND	SYSTEM	READING
[2H]C([2H])([2H])C([2H])([2H])Oc1nc(C(C)(F)F)ccc1-c1ccc2cnc(CNC(=O)c3cc(Cl)c4c(c3)S(=O)(=O)[C@@H](F)COC4)cc2n1 [Compound 499]	BRM-dependent transcription (BRG1 mutant lung cancer cell line A549)	24.97
CCOc1nc([C@H](F)CF)ccc1-c1ccc2cnc(CNC(=O)c3cc(Cl)c4c(c3)S(=O)(=O)[C@@H](F)COC4)cc2n1 [Compound 519]	BRM-dependent transcription (BRG1 mutant lung cancer cell line A549)	28.12
CCOc1nc(C(F)F)ccc1-c1ccc2cnc(CNC(=O)c3cc(Cl)c4c(c3)S(=O)(=O)[C@@H](F)CCO4)cc2n1 [Compound 331]	BRM-dependent transcription (BRG1 mutant lung cancer cell line A549)	33.18
